- System: colon cancer (HCT116)
- METHOD: cells
- Type: cell-based
- PROTOCOL CONDITIONS: Homo sapiens, HCT-116, MTT, 48 h
Response field label: string, one of 1.0 (IC50 strictly below 90 µM) or 0.0.

Previously resolved entries follow.
Request: hey, is IC50 for Cc1ccc(S(=O)(=O)NC(=O)Nc2ccc(OC(F)(F)F)cc2)cc1 lower than 90 µM or not?
Response: 1.0

Request: Another: Cc1ccc(S(=O)(=O)NC(=O)Nc2ccccc2C(F)(F)F)cc1
Response: 0.0

Request: Continue with COc1cccc2c1C(=O)c1c(O)c3c(c(O)c1C2=O)C[C@@](O)(C(=O)CO)C[C@@H]3O[C@H]1C[C@H](N)[C@H](O)[C@H](C)O1 [Doxorubicin, reference compound]
Response: 1.0

Request: Quick one: Cc1ccc(S(=O)(=O)NC(=O)Nc2ccc(C(F)(F)F)cc2)cc1
Response: 0.0

More entries:
Request: Would you kindly verify if IC50 of Cc1ccc(S(=O)(=O)NC(=O)Nc2cc(C(F)(F)F)cc(C(F)(F)F)c2)cc1 is strictly less than 90 µM?
Response: 1.0

====

- System: Bacillus mycoides
- METHOD: microbe, parasite or virus in culture
- Format: cell-based
- PROTOCOL CONDITIONS: read-out: Inhibition zone
I'd appreciate it if you could supply zone of inhibition at 2500 µg/mL values for the items below.
Answers are plain numbers, in mm.

Consider the following illustrative entries.
Request: Reported zone of inhibition at 2500 µg/mL, compound Cc1ccc(S(=O)(=O)NC(=O)Nc2ccc(C(F)(F)F)cc2)cc1 [Compound 7] : ____
Response: 27

Request: Thanks! And Cc1ccc(S(=O)(=O)NC(=O)Nc2ccccc2C(F)(F)F)cc1 [Compound 11] ?
Response: 22

// input: 2 compounds below; output: zone of inhibition at 2500 µg/mL for each
1. Cc1ccc(S(=O)(=O)NC(=O)Nc2ccc(OC(F)(F)F)cc2)cc1 [Compound 8]
2. Cc1ccc(S(=O)(=O)NC(=O)Nc2cc(C(F)(F)F)cc(C(F)(F)F)c2)cc1 [Compound 9]

Response:
1: 27; 2: 32
